- TARGET UNDER TEST: UniProtKB O43175
- Sequence (O43175 whole entry): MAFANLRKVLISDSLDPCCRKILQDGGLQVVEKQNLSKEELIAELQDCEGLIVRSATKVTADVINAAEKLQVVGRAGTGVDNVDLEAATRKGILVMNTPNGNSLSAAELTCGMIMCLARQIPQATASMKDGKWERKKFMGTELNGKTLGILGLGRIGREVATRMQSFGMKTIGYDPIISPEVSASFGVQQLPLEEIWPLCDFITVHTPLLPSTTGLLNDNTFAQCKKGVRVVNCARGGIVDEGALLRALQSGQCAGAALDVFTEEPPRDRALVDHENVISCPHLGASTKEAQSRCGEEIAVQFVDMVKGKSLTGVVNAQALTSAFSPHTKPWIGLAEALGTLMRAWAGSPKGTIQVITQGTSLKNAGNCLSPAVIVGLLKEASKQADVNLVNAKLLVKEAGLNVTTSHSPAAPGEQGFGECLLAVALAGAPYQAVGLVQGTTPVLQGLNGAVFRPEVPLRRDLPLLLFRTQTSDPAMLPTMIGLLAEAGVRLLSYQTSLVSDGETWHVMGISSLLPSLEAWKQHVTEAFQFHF
pIC50: −log10 of the molar value.
Tag: met if measured pIC50 is not below 5, not met if it is.

Please review the entries below; each comes with its answer.
Cc1cc(C)nc(NC(=S)NCCN(C)Cc2ccc(C(F)(F)F)cc2)c1	not met
Cc1cc(C)nc(NC(=S)N2CCN(c3ccc(C(F)(F)F)cc3)CC2)c1	met
Cc1cc(C)nc(NC(=S)N2CCN(Cc3ccc(Cl)cc3)CC2)c1	not met
Cc1cc(C)nc(NC(=S)N2CCN(c3cccnc3)CC2)c1	not met

Note: attention shifts to another entry.
Exercise: Does the compound Cc1cc(C)nc(NC(=S)N2CCN(Cc3ccccc3F)CC2)c1 have recorded pIC50 that is 5 or more?
Key: not met
